# measurement_target: UniProt Q14416
# assay_name: mGlu receptor in vitro assay, human mGlu2
quantity: pEC50
The read-out pEC50 is expressed as -log10 of concentration in moles per litre.

For record COc1c(C(=O)O)cccc1-c1ccc(COc2ccc(C(=O)CC(C)(C)C)c(O)c2C)nc1 [compound 152] the listed pEC50 is 6.89

Memo: COc1ccc(C(=O)O)cc1OCCC(C)COc1ccc(C(=O)CC(C)(C)C)c(O)c1C (stereo not shown) [Example 33] , reported pEC50: 6.88

Kindly note the recorded pEC50 for Cc1c(OCc2cnc(-c3ccc(Cl)c(C(=O)O)c3)cn2)ccc(C(=O)CC(C)(C)C)c1O [compound 138] , which is 6.35

Please fill in: pEC50 reported for COc1ccc(C(=O)O)cc1CCCCCOc1ccc(C(=O)CC(C)(C)C)c(O)c1C [Example 3] = 5.87

// COc1ccc(-c2cnc(COc3ccc(C(=O)CC(C)(C)C)c(O)c3C)cn2)cc1C(=O)O [compound 128] : pEC50 value = 6.53

pEC50 in this record for CCCC(=O)c1ccc(OCc2cnc(-c3cccc(C(=O)O)c3OC)cn2)c(C)c1O [compound 103] : 7.27

Sample COc1c(C(=O)O)cccc1-c1cnc(COc2ccc(C(=O)C3CC3)c(O)c2C)cn1 [compound 78] ; pEC50 observed: 7.39

For record COc1ccc(C(=O)O)cc1OCCCCOc1ccc(C(=O)C2CC2)c(O)c1C [compound 60] the listed pEC50 is 7.22

The reported value for Cc1c(OCc2cccc(-c3cccc(C(=O)O)c3)c2)ccc(C(=O)c2ccc(F)cc2)c1O [compound 74] in terms of pEC50 is 6.03

Query Cc1c(OCc2nnc(-c3cccc(C(=O)O)c3)o2)ccc(C(=O)CC(C)(C)C)c1O [compound 134] yields pEC50 of 6.61

The reported value for COC(=O)N(CCOc1cc(C(=O)O)ccc1OC)CCOc1ccc(C(=O)CC(C)(C)C)c(O)c1C [Example 24] in terms of pEC50 is 7.09

Record Cc1c(OCCCCOc2ccc(C(=O)O)c(F)c2)ccc(C(=O)CC(C)C)c1O [compound 100] . Reported pEC50: 7.82

Given item COc1ccc(C(=O)O)cc1OCCC(C)(C)CCOc1ccc(C(=O)CC(C)(C)C)c(O)c1C [Example 29] , the value recorded as its pEC50 is 6.83

Record COc1ccc(C(=O)O)cc1-c1cncc(COc2ccc(C(=O)C3CC3)c(O)c2C)n1 [compound 69] . Reported pEC50: 7.48

###

# measurement_target: Human mGlu2 (Homo sapiens, UniProt Q14416)
# Sequence (Q14416 19-872): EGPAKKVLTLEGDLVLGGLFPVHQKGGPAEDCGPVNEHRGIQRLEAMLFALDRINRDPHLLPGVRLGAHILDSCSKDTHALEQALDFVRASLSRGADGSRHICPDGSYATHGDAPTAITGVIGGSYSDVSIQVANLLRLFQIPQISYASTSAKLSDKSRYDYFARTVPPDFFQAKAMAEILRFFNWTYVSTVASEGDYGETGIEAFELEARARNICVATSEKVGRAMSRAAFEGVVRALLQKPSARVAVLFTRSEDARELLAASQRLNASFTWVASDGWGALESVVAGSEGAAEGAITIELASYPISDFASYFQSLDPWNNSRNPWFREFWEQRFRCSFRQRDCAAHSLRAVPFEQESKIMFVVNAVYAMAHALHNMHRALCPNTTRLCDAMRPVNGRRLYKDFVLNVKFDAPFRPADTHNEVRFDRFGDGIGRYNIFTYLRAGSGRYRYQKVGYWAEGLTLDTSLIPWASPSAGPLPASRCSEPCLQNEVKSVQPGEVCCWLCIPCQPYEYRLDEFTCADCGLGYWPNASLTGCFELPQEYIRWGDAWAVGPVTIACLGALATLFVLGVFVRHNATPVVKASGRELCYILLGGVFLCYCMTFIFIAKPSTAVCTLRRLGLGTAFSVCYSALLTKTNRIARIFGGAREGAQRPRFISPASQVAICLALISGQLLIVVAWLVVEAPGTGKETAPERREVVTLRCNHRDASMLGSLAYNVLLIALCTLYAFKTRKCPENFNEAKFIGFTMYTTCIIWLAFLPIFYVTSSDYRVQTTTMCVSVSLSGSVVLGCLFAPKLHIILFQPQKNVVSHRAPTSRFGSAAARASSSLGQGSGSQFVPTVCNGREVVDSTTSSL
# assay_name: mGlu receptor in vitro assay, human mGlu2
quantity: pEC50
Keep in mind that pEC50 stands for -log10 of concentration in molar terms.

Documented pEC50 of Cc1c(OCOc2ccc(C(=O)CC(C)(C)C)c(O)c2C)cccc1C(=O)O : 7.00

Recorded result, COc1ccc(C(=O)O)cc1OCC#CCOc1ccc(C(=O)CC(C)(C)C)c(O)c1C , pEC50: 7.82

The value of pEC50 measured for the compound COc1cc(F)c(C(=O)O)cc1-c1cccc(COc2ccc(C(=O)CC(C)(C)C)c(O)c2C)c1 turned out to be 7.41

Lookup result for COc1ccc(C(=O)O)cc1OCCCCOc1ccc(C(=O)c2ccc(F)cc2)c(O)c1C ; measured pEC50: 6.84
